- TARGET OR SYSTEM: EGFR T790M (Homo sapiens, UniProt P00533, T790M)
- Sequence (P00533 25-1210 T790M): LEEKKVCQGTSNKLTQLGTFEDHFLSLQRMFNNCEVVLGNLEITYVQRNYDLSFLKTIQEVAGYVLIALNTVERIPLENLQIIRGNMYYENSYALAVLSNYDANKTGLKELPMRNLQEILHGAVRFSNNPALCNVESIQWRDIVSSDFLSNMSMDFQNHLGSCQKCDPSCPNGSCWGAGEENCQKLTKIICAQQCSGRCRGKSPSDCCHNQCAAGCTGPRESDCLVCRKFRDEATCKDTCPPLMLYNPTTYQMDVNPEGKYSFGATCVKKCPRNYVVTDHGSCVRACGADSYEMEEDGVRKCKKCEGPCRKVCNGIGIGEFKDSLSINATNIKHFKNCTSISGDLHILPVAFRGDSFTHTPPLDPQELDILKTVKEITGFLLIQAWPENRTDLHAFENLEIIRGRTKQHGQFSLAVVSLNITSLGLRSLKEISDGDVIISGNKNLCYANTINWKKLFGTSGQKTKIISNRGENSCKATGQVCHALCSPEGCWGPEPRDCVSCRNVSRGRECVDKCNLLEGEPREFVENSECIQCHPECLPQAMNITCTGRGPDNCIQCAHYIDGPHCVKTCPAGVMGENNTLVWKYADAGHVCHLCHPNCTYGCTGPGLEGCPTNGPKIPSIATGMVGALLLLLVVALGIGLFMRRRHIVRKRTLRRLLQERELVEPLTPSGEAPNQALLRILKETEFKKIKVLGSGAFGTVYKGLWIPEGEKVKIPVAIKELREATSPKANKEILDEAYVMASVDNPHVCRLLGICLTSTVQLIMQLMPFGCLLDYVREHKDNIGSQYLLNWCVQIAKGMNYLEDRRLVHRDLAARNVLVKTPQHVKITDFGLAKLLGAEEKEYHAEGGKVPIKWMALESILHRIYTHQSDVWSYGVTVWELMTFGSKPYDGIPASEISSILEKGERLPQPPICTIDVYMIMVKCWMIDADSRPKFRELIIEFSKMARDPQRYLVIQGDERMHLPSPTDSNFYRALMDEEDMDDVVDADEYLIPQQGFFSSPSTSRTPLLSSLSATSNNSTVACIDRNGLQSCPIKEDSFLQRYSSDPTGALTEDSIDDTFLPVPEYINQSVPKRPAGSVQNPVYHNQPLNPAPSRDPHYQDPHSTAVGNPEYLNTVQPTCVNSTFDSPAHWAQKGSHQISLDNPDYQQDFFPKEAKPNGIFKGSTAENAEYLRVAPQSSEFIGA
- PROCEDURE TEXT: KINOMEscan competition binding kinase assay, Kd (Method B)
- MEASUREMENT SETUP: Method B (Kd values)
pKd: −log10 of the molar value.
MEASUREMENT TYPE: pKd

Task: Lookup: pKd / EGFR T790M (Homo sapiens, UniProt P00533, T790M) / COc1cc(N2CCN(C)CC2)ccc1Nc1ncc(Cl)c(Nc2cccc(NC(=O)C3CSSC3)c2)n1 [Example 41]
Result: 7.00 to 9.00

Task: Same again, this time with COc1cc(N(C)CCN(C)C)c(NC(=O)C(CSC(C)=O)CSC(C)=O)cc1Nc1nccc(-c2cn(C)c3ccccc23)n1 [Example 28]
Result: 6.00 to 7.00

Task: Moving on to COc1cc(N(C)CCN(C)C)c(NC(=O)C2CSSC2)cc1Nc1nccc(-c2cn(C)c3ccccc23)n1 [Example 29]
Result: 6.00 to 7.00

Task: Similarly, COc1cc(N2CCN(C)CC2)ccc1Nc1ncc(Cl)c(Oc2cccc(NC(=O)C3CSSC3)c2)n1 [Example 36] ?
Result: 5.00 to 6.00

Task: Consider next the compound COc1cc(N2CCN(C)CC2)ccc1Nc1ncc(Cl)c(Nc2cccc(NC(=O)C(CSC(C)=O)CSC(C)=O)c2)n1 [Example 40] in the same way.
Result: 6.00 to 7.00

Task: What do we get for COc1cc(N2CCN(C)CC2)ccc1Nc1ncc(Cl)c(Oc2cccc(NC(=O)C(CSC(C)=O)CSC(C)=O)c2)n1 [Example 35] ?
Result: < 5.00
